meta.source: PubChem BioAssay AID2060625

system: 186277-243-T-J2-PDC spheroids with HUVEC/MSC, viability; test: Anticancer human tumor 186277-243-T-J2-PDC patient-derived colon adenocarcinoma cell line growth inhibition [CLK]; details: second compound 3.16 µM; first compound 0.1 µM; active = viability on the fitted dose curve at most 10% of control; inactive = the rest
Labels: active, inactive

# molecule, assigned_category
data = [
    ("COc1cccc2c1C(=O)c1c(O)c3c(c(O)c1C2=O)CC(O)(C(=O)CO)CC3OC1CC(N)C(O)C(C)O1 (stereo not given) + CNC(=O)c1ccc(Nc2nc(OC3CCCC3)c3c(-c4ccc5nc(C)oc5c4)c[nH]c3n2)c(OC)c1", "inactive"),
    ("O=C(c1cc(Cc2n[nH]c(=O)c3ccccc23)ccc1F)N1CCN(C(=O)C2CC2)CC1 + CN1CCN(c2cc(C(=O)Nc3cc4cc(-c5cnn(C)c5)ccc4cn3)ccn2)CC1", "active"),
    ("COc1c(OCCCN2CCOCC2)ccc2c3n(c(=NC(=O)c4cnc(N)nc4)nc12)CCN3 + CN1CCN(c2cc(C(=O)Nc3cc4cc(-c5cnn(C)c5)ccc4cn3)ccn2)CC1", "active"),
    ("COc1ccc([C@@H](O)c2cc(-c3ncnc4cc(N5CCOCC5)ccc34)c(F)cc2Cl)nn1 + CNC(=O)c1ccc(Nc2nc(OC3CCCC3)c3c(-c4ccc5nc(C)oc5c4)c[nH]c3n2)c(OC)c1", "inactive"),
    ("CC(=O)O[C@H]1C(=O)[C@@]2(C)[C@H]([C@H](OC(=O)c3ccccc3)[C@]3(O)C[C@H](OC(=O)[C@H](O)[C@@H](NC(=O)c4ccccc4)c4ccccc4)C(C)=C1C3(C)C)[C@]1(OC(C)=O)CO[C@@H]1C[C@@H]2O + CN1CCN(c2cc(C(=O)Nc3cc4cc(-c5cnn(C)c5)ccc4cn3)ccn2)CC1", "active"),
    ("C=C(F)C(=O)N1CCN(c2nc(OCC3CCCN3C)nc3c2CCN(c2cccc4cccc(Cl)c24)C3)CC1CC#N (stereo not given) + CN1CCN(c2cc(C(=O)Nc3cc4cc(-c5cnn(C)c5)ccc4cn3)ccn2)CC1", "active"),
    ("CC(=O)O[C@H]1C(=O)[C@@]2(C)[C@H]([C@H](OC(=O)c3ccccc3)[C@]3(O)C[C@H](OC(=O)[C@H](O)[C@@H](NC(=O)c4ccccc4)c4ccccc4)C(C)=C1C3(C)C)[C@]1(OC(C)=O)CO[C@@H]1C[C@@H]2O + CNC(=O)c1ccc(Nc2nc(OC3CCCC3)c3c(-c4ccc5nc(C)oc5c4)c[nH]c3n2)c(OC)c1", "inactive"),
    ("Cn1ncnc1[C@H]1c2n[nH]c(=O)c3cc(F)cc(c23)N[C@@H]1c1ccc(F)cc1 + CN1CCN(c2cc(C(=O)Nc3cc4cc(-c5cnn(C)c5)ccc4cn3)ccn2)CC1", "active"),
    ("CCN1CCN(Cc2ccc(Nc3ncc(F)c(-c4cc(F)c5nc(C)n(C(C)C)c5c4)n3)nc2)CC1 + CN1CCN(c2cc(C(=O)Nc3cc4cc(-c5cnn(C)c5)ccc4cn3)ccn2)CC1", "active"),
    ("C=C(F)C(=O)N1CCN(c2nc(OCC3CCCN3C)nc3c2CCN(c2cccc4cccc(Cl)c24)C3)CC1CC#N (stereo not given) + CNC(=O)c1ccc(Nc2nc(OC3CCCC3)c3c(-c4ccc5nc(C)oc5c4)c[nH]c3n2)c(OC)c1", "inactive"),
]

* * *

test system: 186277-243-T-J2-PDC spheroids with HUVEC/MSC, viability; assay: Anticancer human tumor 186277-243-T-J2-PDC cell line growth inhibition [CLK]; details: second compound 1 µM; first compound 0.316 µM; active means viability on the fitted dose curve at most 10% of control; inactive means the rest;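 note: compound exposure lasted seven days before readout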
Labels: T (active), F (inactive)

# compound, assigned_category
data = [
    ("C=CC(=O)N1CCN(c2nc(=O)n(-c3c(C)ccnc3C(C)C)c3nc(-c4c(O)cccc4F)c(F)cc23)C(C)C1 (stereo not given) + CNC(=O)c1ccc(Nc2nc(OC3CCCC3)c3c(-c4ccc5nc(C)oc5c4)c[nH]c3n2)c(OC)c1", "F"),
    ("C=C(F)C(=O)N1CCN(c2nc(OCC3CCCN3C)nc3c2CCN(c2cccc4cccc(Cl)c24)C3)CC1CC#N (stereo not given) + CNC(=O)c1ccc(Nc2nc(OC3CCCC3)c3c(-c4ccc5nc(C)oc5c4)c[nH]c3n2)c(OC)c1", "F"),
    ("CC1(C)CCC(CN2CCN(c3ccc(C(=O)NS(=O)(=O)c4ccc(NCC5CCOCC5)c([N+](=O)[O-])c4)c(Oc4cnc5[nH]ccc5c4)c3)CC2)=C(c2ccc(Cl)cc2)C1 + CN1CCN(c2cc(C(=O)Nc3cc4cc(-c5cnn(C)c5)ccc4cn3)ccn2)CC1", "T"),
    ("Nc1ccn(C2OC(CO)C(O)C2(F)F)c(=O)n1 (stereo not given) + CN1CCN(c2cc(C(=O)Nc3cc4cc(-c5cnn(C)c5)ccc4cn3)ccn2)CC1", "T"),
    ("CC(=O)O[C@H]1C(=O)[C@@]2(C)[C@H]([C@H](OC(=O)c3ccccc3)[C@]3(O)C[C@H](OC(=O)[C@H](O)[C@@H](NC(=O)c4ccccc4)c4ccccc4)C(C)=C1C3(C)C)[C@]1(OC(C)=O)CO[C@@H]1C[C@@H]2O + CN1CCN(c2cc(C(=O)Nc3cc4cc(-c5cnn(C)c5)ccc4cn3)ccn2)CC1", "T"),
    ("O=C(c1cc(Cc2n[nH]c(=O)c3ccccc23)ccc1F)N1CCN(C(=O)C2CC2)CC1 + CNC(=O)c1ccc(Nc2nc(OC3CCCC3)c3c(-c4ccc5nc(C)oc5c4)c[nH]c3n2)c(OC)c1", "F"),
    ("Nc1ccccc1NC(=O)c1ccc(CNC(=O)OCc2cccnc2)cc1 + CN1CCN(c2cc(C(=O)Nc3cc4cc(-c5cnn(C)c5)ccc4cn3)ccn2)CC1", "T"),
    ("Nc1ccccc1NC(=O)c1ccc(CNC(=O)OCc2cccnc2)cc1 + CNC(=O)c1ccc(Nc2nc(OC3CCCC3)c3c(-c4ccc5nc(C)oc5c4)c[nH]c3n2)c(OC)c1", "F"),
    ("C=CC(=O)N1CCN(c2nc(=O)n(-c3c(C)ccnc3C(C)C)c3nc(-c4c(O)cccc4F)c(F)cc23)C(C)C1 (stereo not given) + CN1CCN(c2cc(C(=O)Nc3cc4cc(-c5cnn(C)c5)ccc4cn3)ccn2)CC1", "T"),
    ("CCN1CCN(Cc2ccc(Nc3ncc(F)c(-c4cc(F)c5nc(C)n(C(C)C)c5c4)n3)nc2)CC1 + CNC(=O)c1ccc(Nc2nc(OC3CCCC3)c3c(-c4ccc5nc(C)oc5c4)c[nH]c3n2)c(OC)c1", "F"),
    ("COC1C=CCC(C)C(C)S(=O)(=O)NC(=O)c2ccc3c(c2)N(CC2CCC21)CC1(CCCc2cc(Cl)ccc21)CO3 (stereo not given) + CNC(=O)c1ccc(Nc2nc(OC3CCCC3)c3c(-c4ccc5nc(C)oc5c4)c[nH]c3n2)c(OC)c1", "F"),
    ("CC(CO)NC(=O)c1cc(-c2ccc(Cl)cc2)nn(-c2cnn(C)c2)c1=O (stereo not given) + CNC(=O)c1ccc(Nc2nc(OC3CCCC3)c3c(-c4ccc5nc(C)oc5c4)c[nH]c3n2)c(OC)c1", "F"),
    ("O=c1[nH]cc(F)c(=O)[nH]1 + CNC(=O)c1ccc(Nc2nc(OC3CCCC3)c3c(-c4ccc5nc(C)oc5c4)c[nH]c3n2)c(OC)c1", "F"),
    ("O=c1[nH]cc(F)c(=O)[nH]1 + CN1CCN(c2cc(C(=O)Nc3cc4cc(-c5cnn(C)c5)ccc4cn3)ccn2)CC1", "T"),
    ("CC1(C)CCC(CN2CCN(c3ccc(C(=O)NS(=O)(=O)c4ccc(NCC5CCOCC5)c([N+](=O)[O-])c4)c(Oc4cnc5[nH]ccc5c4)c3)CC2)=C(c2ccc(Cl)cc2)C1 + CNC(=O)c1ccc(Nc2nc(OC3CCCC3)c3c(-c4ccc5nc(C)oc5c4)c[nH]c3n2)c(OC)c1", "F"),
    ("O=C(c1cc(Cc2n[nH]c(=O)c3ccccc23)ccc1F)N1CCN(C(=O)C2CC2)CC1 + CN1CCN(c2cc(C(=O)Nc3cc4cc(-c5cnn(C)c5)ccc4cn3)ccn2)CC1", "T"),
    ("CC(Nc1ccc2c(c1)OCCn1cc(N3C(=O)OCC3C(F)F)nc1-2)C(N)=O (stereo not given) + CN1CCN(c2cc(C(=O)Nc3cc4cc(-c5cnn(C)c5)ccc4cn3)ccn2)CC1", "T"),
    ("CC1COCCN1c1cc(C2(S(C)(=N)=O)CC2)nc(-c2ccnc3[nH]ccc23)n1 (stereo not given) + CNC(=O)c1ccc(Nc2nc(OC3CCCC3)c3c(-c4ccc5nc(C)oc5c4)c[nH]c3n2)c(OC)c1", "F"),
    ("CCc1c2c(nc3ccc(O)cc13)-c1cc3c(c(=O)n1C2)COC(=O)[C@]3(O)CC + CNC(=O)c1ccc(Nc2nc(OC3CCCC3)c3c(-c4ccc5nc(C)oc5c4)c[nH]c3n2)c(OC)c1", "T"),
    ("CC(CO)NC(=O)c1cc(-c2ccc(Cl)cc2)nn(-c2cnn(C)c2)c1=O (stereo not given) + CN1CCN(c2cc(C(=O)Nc3cc4cc(-c5cnn(C)c5)ccc4cn3)ccn2)CC1", "T"),
]
